- Organism: Homo sapiens
- test-summary: Log potency ratio [pD2(C5a)-pD2(peptide)] was determined in human polymorphonuclear cells (PMN) (n=4)
- Assay type: functional
quantity: Mean log concentration ratio
# respond with the number and nothing more

Look over these answered cases.
{"columns": ["record-smiles", "Mean log concentration ratio"],
 "data": [
  ["CSCC[C@H](NC(=O)[C@@H]1CCCN1C(=O)[C@H](CCCCN)NC(=O)[C@H](Cc1ccccc1)NC(=O)[C@H](CO)NC(=O)[C@H](Cc1ccc(O)cc1)NC(=O)[C@H](CCCCN)NC(=O)CNC(=O)[C@H](CCCCN)NC(=O)CNC(=O)[C@@H](N)CCCCN)C(=O)N1CCC[C@H]1C(=O)N[C@@H](CC(C)C)C(=O)N[C@H](C)C(=O)N[C@@H](CCCN=C(N)N)C(=O)O", 2.05],
  ["CSCC[C@H](NC(=O)[C@@H]1CCCN1C(=O)[C@H](CCCCN)NC(=O)[C@H](Cc1ccccc1)NC(=O)[C@H](CO)NC(=O)[C@H](Cc1ccc(O)cc1)NC(=O)CNC(=O)CNC(=O)CNC(=O)[C@H](CCCCN)NC(=O)CNC(=O)[C@H](CCCCN)NC(=O)CNC(=O)[C@@H](N)CCCCN)C(=O)N1CCC[C@H]1C(=O)N[C@@H](CC(C)C)C(=O)N[C@H](C)C(=O)N[C@@H](CCCN=C(N)N)C(=O)O", 1.74]
]}

Continue with the molecule presented below.
Report Mean log concentration ratio for CSCC[C@H](NC(=O)[C@@H]1CCCN1C(=O)[C@H](CCCCN)NC(=O)[C@H](Cc1ccccc1)NC(=O)[C@H](CO)NC(=O)[C@H](Cc1ccc(O)cc1)NC(C)=O)C(=O)N1CCC[C@H]1C(=O)N[C@@H](CC(C)C)C(=O)N[C@H](C)C(=O)N[C@@H](CCCN=C(N)N)C(=O)O please.
2.44
